experiment description: Repeated once-daily oral dosing with food (Days 1-7) in healthy subjects, PK and PD
Assay type: in vivo, human
setup conditions: both sexes, human, plasma, oral, 20 mg, young subjects, 20 mg, Day 7; read-out: AUC0-24, Mean (SD)

compound | AUC(0-t) / ng·h/mL
Cc1ccc(COC(=O)N2CC[C@H](CNc3ncccn3)[C@H](F)C2)cc1 [Form II] | 6040

###

experiment description: Repeated once-daily oral dosing with food (Days 1-7) in healthy subjects, PK and PD
Type: in vivo, human
setup conditions: both sexes, human, plasma, oral, 12 mg, elderly, 12 mg, Day 7; read-out: tmax, Median

molecule | display unit | Tmax
Cc1ccc(COC(=O)N2CC[C@H](CNc3ncccn3)[C@H](F)C2)cc1 [Form II] | h | 2

Entry source: patent US12410153B2
